Procedure details: pKa of the ionizable lipid (ethanolamine headgroup)
Assay type: physicochemical
Experimental parameters: uncharged at physiological pH
Endpoint label: pKa

Prompt: Tell me the measured pKa of CCCCC/C=C\C/C=C\CCCCCCCCOC(=O)CCCCCCCN(CCO)CCCCCCCC(=O)OC(CCCCCCCC)CCCCCCCC , please.
Response: 6.2 to 6.8
